// data source = patent US9868698B2

testDescription: IV/PO pharmacokinetic study in rats (Assay 3)
Type: in vivo
conditionSummary: male, Sprague-Dawley, plasma; rat, IV; analyte = compound dosed (active metabolite); read-out: AUClast Mean
metric: AUC(0-t) (ng·h/mL)

>>> print(df.to_string())
                                   molecule    metric    val
0  O=C(O)C(=O)N[C@H](Cc1ccc(-c2cc(Cl)ccc2F)cc1)C[C@@H](O)C(=O)O [Comparison Compound C6]  AUC(0-t)  15000
1  C[C@@](CO)(C[C@@H](Cc1ccc(-c2cc(Cl)ccc2F)cc1)NC(=O)C(=O)O)C(=O)O [Comparison Compound C2]  AUC(0-t)  16000

====

testDescription: IV/PO pharmacokinetic study in dogs (Assay 3)
Type: in vivo
conditionSummary: male, beagle, plasma; dog, IV; analyte = compound dosed (active metabolite); read-out: AUClast Mean
Description: Each rat or dog pharmacokinetic study began with formulation of the test compound. […] Plasma samples were extracted with 3 volumes of MeCN containing a suitable internal standard. Extracts were reconstituted into 3 volumes of water containing 1% formic acid, and analyzed via HPLC-coupled MS/MS. Plasma concentration-time data were analyzed using the Phoenix software (Pharsight Corp., St. Louis, Mo.) to calculate pharmacokinetic parameters.
metric: AUC(0-t) (ng·h/mL)

P. C[C@@](CO)(C[C@@H](Cc1ccc(-c2cc(Cl)ccc2F)cc1)NC(=O)C(=O)O)C(=O)O [Comparison Compound C2]
Q. O=C(O)C(=O)N[C@H](Cc1ccc(-c2cc(Cl)ccc2F)cc1)C[C@@H](O)C(=O)O [Comparison Compound C6]
Task item: Field: lower recorded AUC(0-t) (choose P or Q ) Indicate your choice by writing its label.
Reply: Q

====

testDescription: IV/PO pharmacokinetic study in rats (Assay 3)
Assay type: in vivo
conditionSummary: male, Sprague-Dawley, plasma; rat, PO; analyte = compound dosed (prodrug); read-out: AUClast Mean
metric: AUC(0-t) (ng·h/mL)

I. CCOC(=O)[C@H](O)C[C@@H](Cc1ccc(-c2cc(Cl)ccc2F)cc1)NC(=O)C(=O)O
II. CCOC(=O)[C@](C)(CO)C[C@@H](Cc1ccc(-c2cc(Cl)ccc2F)cc1)NC(=O)C(=O)O
Task item: Lab notebook, comparison: I versus II , higher AUC(0-t) goes to which? Answer by quoting the chosen item's label.
Reply: II

====

systemUnderTest: NEP (Homo sapiens)
Sequence (P08473 52-750 limits assumed): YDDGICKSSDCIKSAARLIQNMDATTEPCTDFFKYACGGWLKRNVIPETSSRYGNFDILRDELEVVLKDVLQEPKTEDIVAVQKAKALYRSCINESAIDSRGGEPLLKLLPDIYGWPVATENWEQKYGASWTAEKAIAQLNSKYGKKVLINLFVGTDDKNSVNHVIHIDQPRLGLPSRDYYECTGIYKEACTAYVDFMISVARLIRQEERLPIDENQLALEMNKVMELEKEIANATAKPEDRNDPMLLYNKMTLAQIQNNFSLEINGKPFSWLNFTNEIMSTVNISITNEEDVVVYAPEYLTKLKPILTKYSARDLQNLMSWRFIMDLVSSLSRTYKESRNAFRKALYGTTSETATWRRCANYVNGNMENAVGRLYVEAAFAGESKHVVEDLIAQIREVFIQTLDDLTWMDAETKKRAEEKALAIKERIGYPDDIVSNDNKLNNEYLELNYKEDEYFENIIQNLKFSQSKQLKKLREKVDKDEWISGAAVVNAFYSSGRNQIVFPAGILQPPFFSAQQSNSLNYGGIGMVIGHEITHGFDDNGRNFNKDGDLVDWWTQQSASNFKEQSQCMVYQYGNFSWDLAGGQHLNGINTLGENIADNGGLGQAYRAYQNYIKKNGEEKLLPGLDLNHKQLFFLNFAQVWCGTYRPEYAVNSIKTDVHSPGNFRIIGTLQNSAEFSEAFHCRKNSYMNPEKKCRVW
testDescription: In vitro enzyme inhibition assay, human NEP (Assay 1)
Type: biochemical
Design: purchased R&D Systems 1182-ZN
conditionSummary: read-out: human pKi (converted)
metric: Ki (nM)

In [3]: df
Out[3]:
                               linenotation    val
0  CCOC(=O)C(=O)N[C@H](Cc1ccc(-c2cc(Cl)ccc2F)cc1)C[C@@](C)(CO)C(=O)O  0.794
1  O=C(O)C(=O)N[C@H](Cc1ccc(-c2cc(Cl)ccc2F)cc1)C[C@@H](O)C(=O)O    0.2

I. CCOC(=O)C(=O)N[C@H](Cc1ccc(-c2cc(Cl)ccc2F)cc1)C[C@@H](O)C(=O)O
II. CCOC(=O)[C@H](O)C[C@@H](Cc1ccc(-c2cc(Cl)ccc2F)cc1)NC(=O)C(=O)O
III. CCOC(=O)[C@](C)(CO)C[C@@H](Cc1ccc(-c2cc(Cl)ccc2F)cc1)NC(=O)C(=O)O
IV. C[C@@](CO)(C[C@@H](Cc1ccc(-c2cc(Cl)ccc2F)cc1)NC(=O)C(=O)O)C(=O)O
Task item: Task for the reader: rank each entry by its Ki, from the minimum upward. Give your ranking as a list of the labels in the requested order.
Reply: I, IV, II, III

====

systemUnderTest: Rat NEP (Rattus norvegicus)
Construct: leaving a viscous oily precipitate containing the enriched membrane fraction; from tissue; host or cells: kidneys of adult Sprague Dawley rats (Triton X-114 enriched membrane fraction)
Sequence (P07861 whole entry): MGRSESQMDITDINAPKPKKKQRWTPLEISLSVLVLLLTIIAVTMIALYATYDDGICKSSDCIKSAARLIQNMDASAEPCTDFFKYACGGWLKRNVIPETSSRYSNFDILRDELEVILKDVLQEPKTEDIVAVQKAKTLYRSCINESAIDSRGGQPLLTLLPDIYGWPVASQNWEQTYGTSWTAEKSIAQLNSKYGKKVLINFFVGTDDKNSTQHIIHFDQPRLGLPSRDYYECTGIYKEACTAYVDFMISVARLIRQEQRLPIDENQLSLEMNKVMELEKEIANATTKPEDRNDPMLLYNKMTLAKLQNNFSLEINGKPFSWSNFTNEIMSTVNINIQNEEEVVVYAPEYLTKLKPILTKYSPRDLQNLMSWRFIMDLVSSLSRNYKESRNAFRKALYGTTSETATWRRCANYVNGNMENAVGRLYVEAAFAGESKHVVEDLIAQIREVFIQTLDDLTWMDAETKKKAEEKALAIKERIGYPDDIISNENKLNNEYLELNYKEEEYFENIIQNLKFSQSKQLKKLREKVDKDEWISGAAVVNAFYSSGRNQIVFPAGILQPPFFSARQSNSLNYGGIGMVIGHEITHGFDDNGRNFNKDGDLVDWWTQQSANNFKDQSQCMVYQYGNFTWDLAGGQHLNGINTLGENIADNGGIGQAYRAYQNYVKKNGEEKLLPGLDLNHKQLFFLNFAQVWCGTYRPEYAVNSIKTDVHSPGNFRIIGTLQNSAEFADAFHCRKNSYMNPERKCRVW
testDescription: In vitro enzyme inhibition assay, rat NEP (Assay 1)
Type: biochemical
conditionSummary: NEP from rat kidneys; read-out: rat pKi (converted)
metric: Ki (nM)

Consider the following illustrative entries.
>>> df
                               linenotation  metric    val
0  C[C@@](CO)(C[C@@H](Cc1ccc(-c2cc(Cl)ccc2F)cc1)NC(=O)C(=O)O)C(=O)O      Ki  0.316
1  CCOC(=O)C(=O)N[C@H](Cc1ccc(-c2cc(Cl)ccc2F)cc1)C[C@@H](O)C(=O)O      Ki    0.2
2  CCOC(=O)C(=O)N[C@H](Cc1ccc(-c2cc(Cl)ccc2F)cc1)C[C@@](C)(CO)C(=O)O      Ki  0.794

I. O=C(O)C(=O)N[C@H](Cc1ccc(-c2cc(Cl)ccc2F)cc1)C[C@@H](O)C(=O)O
II. CCOC(=O)[C@H](O)C[C@@H](Cc1ccc(-c2cc(Cl)ccc2F)cc1)NC(=O)C(=O)O
III. CCOC(=O)[C@](C)(CO)C[C@@H](Cc1ccc(-c2cc(Cl)ccc2F)cc1)NC(=O)C(=O)O
Task item: Put the compounds in ascending order of Ki. Form entry: labels listed in requested order.
Reply: I, II, III
(I: 0.158 nM, II: 7.94 nM, III: 2000 nM)

====

testDescription: IV/PO pharmacokinetic study in dogs (Assay 3)
Format: in vivo
conditionSummary: male, beagle, plasma; dog, PO; analyte = compound dosed (prodrug); read-out: AUClast Mean
Experimental: Each rat or dog pharmacokinetic study began with formulation of the test compound. […] Plasma samples were extracted with 3 volumes of MeCN containing a suitable internal standard. Extracts were reconstituted into 3 volumes of water containing 1% formic acid, and analyzed via HPLC-coupled MS/MS. Plasma concentration-time data were analyzed using the Phoenix software (Pharsight Corp., St. Louis, Mo.) to calculate pharmacokinetic parameters.
metric: AUC(0-t) (ng·h/mL)

>>> df
                               linenotation  val
0  CCOC(=O)C(=O)N[C@H](Cc1ccc(-c2cc(Cl)ccc2F)cc1)C[C@@](C)(CO)C(=O)O  3.7

I. CCOC(=O)C(=O)N[C@H](Cc1ccc(-c2cc(Cl)ccc2F)cc1)C[C@@H](O)C(=O)O
II. CCOC(=O)[C@H](O)C[C@@H](Cc1ccc(-c2cc(Cl)ccc2F)cc1)NC(=O)C(=O)O
III. CCOC(=O)[C@](C)(CO)C[C@@H](Cc1ccc(-c2cc(Cl)ccc2F)cc1)NC(=O)C(=O)O
Task item: // ascending sort on recorded AUC(0-t) Lab note: record answer as labels in requested order.
Reply: I, II, III
